biological target: CFTR-mediated short-circuit current in F508del/MF-HBE cells (Homo sapiens, UniProt P13569, DEL508-508); construct: human bronchial epithelial (HBE) cells derived from CF subjects; endogenous in cells; host or cells: primary human bronchial epithelial cells from CF subjects (F508del/MF-HBE); assay: HBE assay: Ussing chamber assay of CFTR-mediated short-circuit currents; assay type: cell-based; details: at 10 μM
Sequence (P13569 with tags, fused parts or gaps DEL508-508): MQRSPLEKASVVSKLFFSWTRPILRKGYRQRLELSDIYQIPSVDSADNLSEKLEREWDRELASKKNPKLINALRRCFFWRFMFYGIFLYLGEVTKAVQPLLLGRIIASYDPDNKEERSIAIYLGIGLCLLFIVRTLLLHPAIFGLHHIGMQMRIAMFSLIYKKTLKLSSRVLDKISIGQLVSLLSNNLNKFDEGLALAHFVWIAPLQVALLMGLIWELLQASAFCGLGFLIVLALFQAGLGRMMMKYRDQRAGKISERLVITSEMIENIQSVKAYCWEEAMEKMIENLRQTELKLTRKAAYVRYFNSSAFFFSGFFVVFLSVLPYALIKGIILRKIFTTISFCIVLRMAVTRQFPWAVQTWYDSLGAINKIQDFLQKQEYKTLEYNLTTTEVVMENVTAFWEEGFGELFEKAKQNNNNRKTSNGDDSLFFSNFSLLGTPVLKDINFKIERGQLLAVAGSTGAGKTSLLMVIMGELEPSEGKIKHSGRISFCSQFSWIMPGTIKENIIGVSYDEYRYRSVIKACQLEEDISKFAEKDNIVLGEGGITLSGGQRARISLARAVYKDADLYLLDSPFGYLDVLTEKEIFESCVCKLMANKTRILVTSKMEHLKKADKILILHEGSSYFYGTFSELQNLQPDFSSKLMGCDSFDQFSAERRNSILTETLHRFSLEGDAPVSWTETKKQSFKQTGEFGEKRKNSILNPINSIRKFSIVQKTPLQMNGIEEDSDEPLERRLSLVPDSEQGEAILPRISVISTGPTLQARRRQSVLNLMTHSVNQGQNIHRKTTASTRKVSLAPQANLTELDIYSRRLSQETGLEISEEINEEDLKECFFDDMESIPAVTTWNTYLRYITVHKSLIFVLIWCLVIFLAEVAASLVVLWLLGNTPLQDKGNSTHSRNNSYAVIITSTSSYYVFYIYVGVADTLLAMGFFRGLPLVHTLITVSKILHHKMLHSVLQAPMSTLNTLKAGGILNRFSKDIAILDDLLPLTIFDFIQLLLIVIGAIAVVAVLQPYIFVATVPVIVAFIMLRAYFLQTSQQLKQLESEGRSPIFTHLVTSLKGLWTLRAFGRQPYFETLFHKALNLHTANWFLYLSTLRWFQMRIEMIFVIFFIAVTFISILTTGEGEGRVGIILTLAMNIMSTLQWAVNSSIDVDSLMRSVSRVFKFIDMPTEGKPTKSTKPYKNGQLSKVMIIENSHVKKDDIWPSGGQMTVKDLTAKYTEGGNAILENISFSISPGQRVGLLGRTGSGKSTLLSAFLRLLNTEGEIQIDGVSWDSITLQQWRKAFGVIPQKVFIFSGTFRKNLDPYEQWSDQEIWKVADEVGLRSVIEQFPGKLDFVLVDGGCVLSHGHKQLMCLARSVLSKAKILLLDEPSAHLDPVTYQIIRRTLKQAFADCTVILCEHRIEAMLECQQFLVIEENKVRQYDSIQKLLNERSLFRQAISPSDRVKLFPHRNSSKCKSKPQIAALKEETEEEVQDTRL
RESULT_TYPE: HBE Activity at 10 μM (%)

Please review the following examples before continuing.
# COMPOUND, HBE Activity at 10 μM (%)
measured = [
    ("Cc1cccc(C)c1-c1cc2nc(n1)NS(=O)(=O)c1cccc(c1)C(=O)N1[C@@H](c3ncc(OC(C)C)cn3)CC[C@@H](CC(C)C)[C@H]1CO2 (single isomer, unassigned) [Compound 392]", "++ (++ is 30-60%)"),
    ("Cc1cccc(C)c1-c1cc2nc(n1)NS(=O)(=O)c1cccc(c1)C(=O)N1[C@@H](c3cccc(N(C)C4CC5(CC5)C4)n3)CC[C@@H](C(C)C)[C@H]1CO2 (single isomer, unassigned) [Compound 391]", "++ (++ is 30-60%)"),
    ("Cc1cccc(C)c1-c1cc2nc(n1)NS(=O)(=O)c1cccc(c1)C(=O)N1[C@@H](c3cccc(N(C)C4CC5(CC5)C4)n3)CC[C@@H](C(C)C)[C@H]1CO2 (single isomer, unassigned) [Compound 390]", "+++ (+++ is >60%)"),
    ("Cc1cccc(C)c1-c1cc2nc(n1)NS(=O)(=O)c1cccc(c1)C(=O)N1C(c3ncc(OC(C)C)cn3)CCC(CC(C)C)C1CO2 (centres unmarked) [Compound 414]", "+++ (+++ is >60%)"),
]

Here's the next entry for you.
[ask] Which HBE Activity at 10 μM (%) value belongs to Cc1cccc(C)c1-c1cc2nc(n1)NS(=O)(=O)c1cccc(c1)C(=O)N1[C@@H](c3ncc(OC(C)C)cn3)CC[C@@H](CC(C)C)[C@H]1CO2 (single isomer, unassigned) [Compound 393] ?
[reply] +++ (+++ is >60%)

---

Molecular target: CFTR-mediated chloride transport in human intestinal epithelial enteroid cells (Homo sapiens, UniProt P13569)
Sequence (P13569 with tags, fused parts or gaps DEL508-508): as above
Experiment: Membrane potential dye, Enteroid Assay A
Assay type: cell-based
Details: Enteroid Assay A
Experimental: Base medium (ADF+++) consisted of Advanced DMEM/Ham's F12, 2 mM Glutamax, 10 mM HEPES, […] penicillin/streptomycin. Bath 1 Buffer consisted of 1 mM MgCl2, 160 mM NaCl, 4.5 mM KCl, 10 mM HEPES, 10 mM Glucose, 2 mM CaCl2. […] Briefly, cells were washed 5 times in Bath 1 Buffer. […] Chloride transport was initiated by addition of Chloride Free Dye Stimulation Solution and the fluorescence signal was read for 15 min. […]
RESULT_TYPE: Ent. A Max Activity (%)

Below: 8 molecules and their reported Ent. A Max Activity (%).
# MOLECULE, RESULT
measured = [
    ("Cc1cccc(C)c1-c1cc2nc(n1)NS(=O)(=O)c1cccc(c1)C(=O)N1C[C@@H](CN(C3CCC(F)(F)CC3)C[C@@H]1CC(C)C)O2 [Compound 152]", "++ (++ is 30-60%)"),
    ("Cc1cccc(C)c1-c1cc2nc(n1)NS(=N)(=O)c1cccc(c1)C(=O)N1CCNCC(C1)O2 (stereo not drawn) [Compound 242]", "+ (+ is <30%)"),
    ("Cc1cccc(C)c1-c1cc2nc(n1)NS(=O)(=O)c1cccc(c1)C(=O)N1CC(CCc3ccccc31)O2 (stereo not drawn) [Compound 228]", "++ (++ is 30-60%)"),
    ("Cc1cccc(C)c1-c1cc2nc(n1)NS(=O)(=O)c1cccc(c1)C(=O)N1CCN(C(C)(C)C)C[C@H](C1)O2 [Compound 71]", "+++ (+++ is >600%)"),
    ("Cc1cccc(C)c1-c1cc2nc(n1)NS(=O)(=O)c1cccc(c1)C(=O)N1C[C@@H](CN(C)C[C@@H]1CC(C)C)O2 [Compound 99]", "++ (++ is 30-60%)"),
    ("Cc1cccc(C)c1-c1cc2nc(n1)NS(=O)(=O)c1cccc(c1)C(=O)N1CCN(C3CCCCC3)C[C@H](C1)O2 [Compound 22]", "+++ (+++ is >600%)"),
    ("Cc1cccc(C)c1-c1cc2nc(n1)NS(=O)(=O)c1cccc(c1)C(=O)N1C[C@@H](CN(C3CCCC3)C[C@H]1CC(C)C)O2 [Compound 138]", "++ (++ is 30-60%)"),
    ("Cc1cccc(C)c1-c1cc2nc(n1)NS(=O)(=O)c1cccc(c1)C(=O)N1C[C@@H](CN(CCC(C)(C)C)C[C@@H]1CC(C)C)O2 [Compound 153]", "++ (++ is 30-60%)"),
]

[ask] Entry under review: Cc1cccc(C)c1-c1cc2nc(n1)NS(=O)(=O)c1cccc(c1)C(=O)N1CCN(Cc3ccccc3)CC(O2)C1CC(C)C (single isomer, unassigned) [Compound 89] . Reported Ent. A Max Activity (%)?
[reply] +++ (+++ is >600%)

[ask] Likewise for Cc1cccc(C)c1-c1cc2nc(n1)NS(=O)(=O)c1cccc(c1)C(=O)N1CCN(Cc3ccccc3)C[C@H](O2)[C@@H]1CC(C)C (single isomer, unassigned) [Compound 87] ?
[reply] ++ (++ is 30-60%)

[ask] Same lookup for Cc1cccc(C)c1-c1cc2nc(n1)NS(=O)(=O)c1cccc(c1)C(=O)N1C[C@@H](CNC[C@@H]1CC(C)(C)C)O2 [Compound 135] , please.
[reply] ++ (++ is 30-60%)

[ask] Now this one: Cc1cccc(C)c1-c1cc2nc(n1)NS(=O)(=O)c1cccc(c1)C(=O)N1Cc3cc(C(C)(C)C)ccc3[C@H](O2)[C@H]1CC(C)C [Compound 184]
[reply] +++ (+++ is >600%)

---

biological target: CFTR-mediated chloride transport in human intestinal epithelial enteroid cells (Homo sapiens); test: Membrane potential dye, Enteroid Assay A; format: cell-based; details: percentage of chloride transport of triple combination control (3 μM N-[(6-amino-2-pyridyl)sulfonyl]-6-(3-fluoro-5-isobutoxy-phenyl)-2-[(4S)-2,2,4-trimethylpyrrolidin-1-yl]pyridine-3-carboxamide based)
RESULT_TYPE: Ent. A Max Activity (%)

Answered cases to consult:
# COMPOUND, RESULT_TYPE, RESULT
rows = [
    ("Cc1cccc(C)c1-c1cc2nc(n1)NS(=O)(=O)c1cccc(c1)NC(=O)[C@@H]1CNCCN1c1cccc(c1)O2", "Ent. A Max Activity (%)", "+++ (+++ is >60%)"),
    ("Cc1cccc(C)c1-c1cc2nc(n1)NS(=O)(=O)c1cccc(c1)C(=O)N1CC(CC(c3ccccc3)C1)O2 (single isomer, unassigned) [Compound 223]", "Ent. A Max Activity (%)", "++ (++ is 30-60%)"),
    ("Cc1cccc(C)c1-c1cc2nc(n1)NS(=O)(=O)c1cc(ccn1)C(=O)N1Cc3ccccc3C(C1)O2 (centres unmarked)", "Ent. A Max Activity (%)", "++ (++ is 30-60%)"),
    ("Cc1cccc(C)c1-c1cc2nc(n1)NS(=O)(=O)c1cccc(c1)C(=O)N1CCN(CCC(C)(C)C)C(CO2)C1 (centres unmarked)", "Ent. A Max Activity (%)", "++ (++ is 30-60%)"),
]

[ask] Could you share which Ent. A Max Activity (%) value was measured for Cc1cccc(C)c1-c1cc2nc(n1)NS(=O)(=O)c1cccc(c1)C(=O)N1CCN(Cc3ccccc3)C[C@@H](C1)O2 ?
[reply] + (+ is <300%)

[ask] Further, for Cc1cccc(C)c1-c1cc2nc(n1)NS(=O)(=O)c1cccc(c1)C(=O)N1Cc3ncccc3C(C1)O2 (centres unmarked) ?
[reply] ++ (++ is 30-60%)

[ask] Then this compound: Cc1cccc(C)c1-c1cc2nc(n1)NS(=O)(=O)c1cccc(c1)C(=O)N1CCN(CC3CCCCC3)CC(C1)O2 (centres unmarked)
[reply] ++ (++ is 30-60%)

[ask] Param item: Cc1cccc(C)c1-c1cc2nc(n1)NS(=O)(=O)c1cccc(c1)C(=O)N1CCCC(O2)C1CC(C)C (single isomer, unassigned) [Compound 231]
[reply] +++ (+++ is >60%)

[ask] Would you kindly repeat that for Cc1cccc(C)c1-c1cc2nc(n1)NS(=O)(=O)c1cccc(c1)NC(=O)CN1CCCC(C1)O2 (centres unmarked) ?
[reply] + (+ is <300%)

[ask] Please do the same for Cc1cccc(C)c1-c1cc2nc(n1)NS(=O)(=O)c1cc(n(C)n1)C(=O)N1Cc3ccccc3[C@H](C1)O2 [Compound 341] as well.
[reply] ++ (++ is 30-60%)

[ask] Then this compound: Cc1cccc(C)c1-c1cc2nc(n1)NS(=O)(=O)c1cccc(c1)C(=O)N1CCN(CCC3(C(F)(F)F)CC3)C[C@@H]1CO2
[reply] +++ (+++ is >60%)

[ask] Moving on to the next compound: Cc1cccc(C)c1-c1cc2nc(n1)NS(=O)(=O)c1cccc(c1)C(=O)N1CCCC(O2)C1CC(C)C (single isomer, unassigned) [Compound 230]
[reply] +++ (+++ is >60%)

[ask] Check Cc1cccc(C)c1-c1cc2nc(n1)NS(=O)(=O)c1cnn(c1)CCC(=O)N1Cc3ccccc3C(C1)O2 (centres unmarked) too.
[reply] + (+ is <300%)

[ask] And then Cc1cccc(C)c1-c1cc2nc(n1)NS(=O)(=O)c1cccc(c1)C(=O)N1Cc3ccccc3C[C@H](C1)O2 (single isomer, unassigned) , what is it?
[reply] +++ (+++ is >60%)

[ask] Thanks! And Cc1cccc(C)c1-c1cc2nc(n1)NS(=O)(=O)c1cccc(c1)C(=O)N1Cc3ccccc3C(C1)O2 (centres unmarked) ?
[reply] +++ (+++ is >60%)

[ask] Next up: Cc1cccc(C)c1-c1cc2nc(n1)NS(=O)(=O)c1cccc(c1)C(=O)N1CCN(CCC(C)C)CC(C1)O2 (centres unmarked)
[reply] +++ (+++ is >60%)

[ask] Now try Cc1cccc(C)c1-c1cc2nc(n1)NS(=O)(=O)c1cc(n(C)c1)C(=O)N1Cc3ccccc3C(C1)O2 (centres unmarked) .
[reply] ++ (++ is 30-60%)

[ask] Now the compound Cc1cccc(C)c1-c1cc2nc(n1)NS(=O)(=O)c1cccc(c1)C(=O)N1CCN(Cc3ccnnc3)C[C@@H]1CO2
[reply] + (+ is <300%)

[ask] Quick one: Cc1cccc(C)c1-c1cc2nc(n1)NS(=O)(=O)c1cccc(c1)CN1CC(COCC(C)(C)C)CC(C1)O2 (centres unmarked)
[reply] ++ (++ is 30-60%)

[ask] Request: Cc1cccc(C)c1-c1cc2nc(n1)NS(=O)(=O)c1cccc(c1)C(=O)N1Cc3cccnc3C(C1)O2 (single isomer, unassigned)
[reply] ++ (++ is 30-60%)

[ask] Try this compound next: Cc1cccc(C)c1-c1cc2nc(n1)NS(=O)(=O)c1cccc(c1)C(=O)N1CCN(Cc3cnn(C(C)C)c3)C[C@@H]1CO2
[reply] ++ (++ is 30-60%)

[ask] And for Cc1cccc(C)c1-c1cc2nc(n1)NS(=O)(=O)c1cccc(c1)C(=O)N1CCN(Cc3c[nH]cn3)C[C@@H]1CO2 ?
[reply] + (+ is <300%)

[ask] And Cc1cccc(C)c1-c1cc2nc(n1)NS(=O)(=O)c1cccc(c1)C(=O)N1CCN(CCC(C)C)C[C@@H]1CO2 ?
[reply] +++ (+++ is >60%)
